assay: Plasma stability profiling Method #1 (MALDI-TOF, 35% plasma), rat plasma; assay type: in vitro ADME; conditions: Table 14; method #1
Numbered stars: 1 amine (or outer) side, 2 acyl side, 3 side chain; on linkers, the order of the positions; unused ones are H or OH. Bridge positions count the residues as written; N and C are the ends. Square brackets hold non-standard residues; d marks the D form. Peptide text beside a SMILES is read from it. TBMB = c1c(C[*:1])cc(C[*:3])cc1C[*:2]; Pen = CC(C)(S)[C@H](N)C(=O)O; Abu = CC[C@H](N)C(=O)O; βAla = NCCC(=O)O
OBSERVABLE: Observable in rat plasma, for days (days)

CC(=O)N[C@H]1CSCc2cc3cc(c2)CSC(C)(C)[C@H](NC(=O)[C@H](CCCNC(=N)N)NC(=O)[C@H](C)NC(=O)[C@@H]2CCCN2C(=O)[C@H](Cc2c[nH]c4ccccc24)NC(=O)[C@H](CO)NC1=O)C(=O)N[C@@H](CC(C)C)C(=O)N[C@@H](Cc1c[nH]cn1)C(=O)N[C@@H](CCC(N)=O)C(=O)N[C@@H](CC(=O)O)C(=O)N[C@@H](CC(C)C)C(=O)N[C@H](C(N)=O)CSC3 [Ac-(06-34-18) Cys2ToPen2] (Ac-CSWPAR[Pen]LHQDLC-NH2; linker 1-7-13 via TBMB) | 5
CC[C@@H]1NC(=O)[C@@H]2CCCN2C(=O)[C@H](Cc2c[nH]c3ccccc23)NC(=O)[C@H](CO)NC(=O)[C@@H](NC(C)=O)CSCc2cc3cc(c2)CSC[C@H](NC(=O)[C@H](CCCNC(=N)N)NC1=O)C(=O)N[C@@H](CC(C)C)C(=O)N[C@@H](Cc1c[nH]cn1)C(=O)N[C@@H](CCC(N)=O)C(=O)N[C@@H](CC(=O)O)C(=O)N[C@@H](CC(C)C)C(=O)N[C@H](C(N)=O)CSC3 [Ac-(06-34-18) Aba4] (Ac-CSWP[Abu]RCLHQDLC-NH2; linker 1-7-13 via TBMB) | 2
CC(=O)N[C@H]1CSCc2cc3cc(c2)CSC[C@H](NC(=O)[C@H](CCCNC(=N)N)NC(=O)CCNC(=O)[C@@H]2CCCN2C(=O)[C@H](Cc2c[nH]c4ccccc24)NC(=O)[C@H](CO)NC1=O)C(=O)N[C@@H](CC(C)C)C(=O)N[C@@H](Cc1c[nH]cn1)C(=O)N[C@@H](CCC(N)=O)C(=O)N[C@@H](CC(=O)O)C(=O)N[C@@H](CC(C)C)C(=O)N[C@H](C(N)=O)CSC3 [Ac-(06-34-18) β-Ala4] (Ac-CSWP[βAla]RCLHQDLC-NH2; linker 1-7-13 via TBMB) | 10

====

target: human plasma Kallikrein (Homo sapiens, UniProt P03952); construct: purchased Stratech, UK; experiment: Functional enzyme inhibition assay with fluorogenic substrate Z-PheArg-AMC, human plasma Kallikrein; assay type: biochemical; settings: Table 25a, fold change of Ki of variant compared to WT
Sequence (P03952 20-638): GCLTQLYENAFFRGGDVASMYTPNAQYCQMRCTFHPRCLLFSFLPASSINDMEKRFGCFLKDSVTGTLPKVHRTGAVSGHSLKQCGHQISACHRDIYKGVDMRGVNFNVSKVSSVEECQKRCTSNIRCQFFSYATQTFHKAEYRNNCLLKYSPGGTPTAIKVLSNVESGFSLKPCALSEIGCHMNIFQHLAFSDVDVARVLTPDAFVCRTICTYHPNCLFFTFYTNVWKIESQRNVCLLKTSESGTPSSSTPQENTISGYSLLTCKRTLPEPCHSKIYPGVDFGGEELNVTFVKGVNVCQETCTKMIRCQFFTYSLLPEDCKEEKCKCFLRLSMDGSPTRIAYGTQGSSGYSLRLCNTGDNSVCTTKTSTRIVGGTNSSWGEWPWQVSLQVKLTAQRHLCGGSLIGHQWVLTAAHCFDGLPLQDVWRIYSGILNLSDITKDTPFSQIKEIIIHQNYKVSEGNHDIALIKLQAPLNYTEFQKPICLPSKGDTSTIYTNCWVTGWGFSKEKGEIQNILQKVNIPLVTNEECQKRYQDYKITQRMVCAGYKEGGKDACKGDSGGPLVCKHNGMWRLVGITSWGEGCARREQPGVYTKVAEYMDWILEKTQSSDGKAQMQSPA
Numbered stars: 1 amine (or outer) side, 2 acyl side, 3 side chain; on linkers, the order of the positions; unused ones are H or OH. Bridge positions count the residues as written; N and C are the ends. Square brackets hold non-standard residues; d marks the D form. Peptide text beside a SMILES is read from it. TBMB = c1c(C[*:1])cc(C[*:3])cc1C[*:2]; NMeH = CN[C@@H](Cc1c[nH]cn1)C(=O)O; NMeQ = CN[C@@H](CCC(N)=O)C(=O)O; NMeD = CN[C@@H](CC(=O)O)C(=O)O; NMeL = CN[C@@H](CC(C)C)C(=O)O
As shown below, each of these molecules has a reported F (Kivar/KiWT) value.
OBSERVABLE: F (Kivar/KiWT)

CC(=O)N[C@H]1CSCc2cc3cc(c2)CSC[C@H](NC(=O)[C@H](CCCNC(=N)N)NC(=O)[C@H](Cc2ccc(O)cc2)NC(=O)[C@@H]2CCCN2C(=O)[C@H](Cc2ccccc2)NC(=O)[C@H](CO)NC1=O)C(=O)N[C@@H](CC(C)C)C(=O)N[C@@H](Cc1c[nH]cn1)C(=O)N(C)[C@@H](CCC(N)=O)C(=O)N[C@@H](CC(=O)O)C(=O)N[C@@H](CC(C)C)C(=O)N[C@H](C(N)=O)CSC3 [Ac-(06-34-18) Phe2 Tyr4 NMe-Gln8] (Ac-CSFPYRCLH[NMeQ]DLC-NH2; linker 1-7-13 via TBMB) | 149
CC(=O)N[C@H]1CSCc2cc3cc(c2)CSC[C@H](NC(=O)[C@H](CCCNC(=N)N)NC(=O)[C@H](Cc2ccc(O)cc2)NC(=O)[C@@H]2CCCN2C(=O)[C@H](Cc2ccccc2)NC(=O)[C@H](CO)NC1=O)C(=O)N[C@@H](CC(C)C)C(=O)N(C)[C@@H](Cc1cnc[nH]1)C(=O)N[C@@H](CCC(N)=O)C(=O)N[C@@H](CC(=O)O)C(=O)N[C@@H](CC(C)C)C(=O)N[C@H](C(N)=O)CSC3 [Ac-(06-34-18) Phe2 Tyr4 NMe-His7] (Ac-CSFPYRCL[NMeH]QDLC-NH2; linker 1-7-13 via TBMB) | 151
CC(=O)N[C@H]1CSCc2cc3cc(c2)CSC[C@H](NC(=O)[C@H](CCCNC(=N)N)NC(=O)[C@H](Cc2ccc(O)cc2)NC(=O)[C@@H]2CCCN2C(=O)[C@H](Cc2ccccc2)NC(=O)[C@H](CO)NC1=O)C(=O)N(C)[C@@H](CC(C)C)C(=O)N[C@@H](Cc1c[nH]cn1)C(=O)N[C@@H](CCC(N)=O)C(=O)N[C@@H](CC(=O)O)C(=O)N[C@@H](CC(C)C)C(=O)N[C@H](C(N)=O)CSC3 [Ac-(06-34-18) Phe2 Tyr4 NMe-Leu6] (Ac-CSFPYRC[NMeL]HQDLC-NH2; linker 1-7-13 via TBMB) | 137
CC(=O)N[C@H]1CSCc2cc3cc(c2)CSC[C@H](NC(=O)[C@H](CCCNC(=N)N)NC(=O)[C@H](Cc2ccc(O)cc2)NC(=O)[C@@H]2CCCN2C(=O)[C@H](Cc2ccccc2)NC(=O)[C@H](CO)NC1=O)C(=O)N[C@@H](CC(C)C)C(=O)N[C@@H](Cc1c[nH]cn1)C(=O)N[C@@H](CCC(N)=O)C(=O)N(C)[C@@H](CC(=O)O)C(=O)N[C@@H](CC(C)C)C(=O)N[C@H](C(N)=O)CSC3 [Ac-(06-34-18) Phe2 Tyr4 NMe-Asp9] (Ac-CSFPYRCLHQ[NMeD]LC-NH2; linker 1-7-13 via TBMB) | 105
CC(=O)N[C@H]1CSCc2cc3cc(c2)CSC[C@H](NC(=O)[C@H](CCCNC(=N)N)NC(=O)[C@H](Cc2ccc(O)cc2)NC(=O)[C@@H]2CCCN2C(=O)[C@H](Cc2ccccc2)NC(=O)[C@H](CO)NC1=O)C(=O)N[C@@H](CC(C)C)C(=O)N[C@@H](Cc1c[nH]cn1)C(=O)N[C@@H](CCC(N)=O)C(=O)N[C@@H](CC(=O)O)C(=O)N(C)[C@@H](CC(C)C)C(=O)N[C@H](C(N)=O)CSC3 [Ac-(06-34-18) Phe2 Tyr4 NMe-Leu10] (Ac-CSFPYRCLHQD[NMeL]C-NH2; linker 1-7-13 via TBMB) | 1396
